Tested on: 931267-113-T-J1-PDC multicell spheroid viability;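 note: viability read 7 days after compound addition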
Test: Anticancer human tumor 931267-113-T-J1-PDC patient-derived colon adenocarcinoma cell line growth inhibition [PI3K]
Conditions: second compound 10 µM; first compound 0.0316 µM; stronger effect = lower value
Source text: Combinatorial screen of targeted agents with the PI3K inhibitors inavolisib, alpelisib, duvelisib, and copanlisib in multi-cell type tumor spheroids A high-throughput screen of multi-cell type tumor spheroids was designed to identify active combinations of targeted small molecules and PI3K pathway inhibitors. […] Compounds. […] If the clinical Cmax for an agent had not been determined, the highest concentration tested was 10 microM. […]
Threshold-based label: viability, T/C under 90% gives True, viability, T/C not under 90% gives False.

{"compound": "Cn1ncc(Cl)c1-c1cc(C(=O)NC(CN)Cc2cccc(F)c2)sc1Cl (stereo unspecified) + CC(Nc1ncnc2nc[nH]c12)c1cc2cccc(Cl)c2c(=O)n1-c1ccccc1", "system tested": "931267-113-T-J1-PDC multicell spheroid viability", "assigned label": "False"}
{"compound": "CC1(C)CCC(Nc2ncc(C(F)(F)F)c(-c3c[nH]c4c(P(C)(C)=O)c(C#N)ccc34)n2)CN1 (stereo unspecified) + Cc1nc(NC(=O)N2CCCC2C(N)=O)sc1-c1ccnc(C(C)(C)C(F)(F)F)c1", "system tested": "931267-113-T-J1-PDC multicell spheroid viability", "assigned label": "True"}
{"compound": "Cn1nccc1Nc1nccc(-c2ccn(C(CO)c3ccc(Cl)c(F)c3)c(=O)c2)n1 (stereo unspecified) + Cc1nc(NC(=O)N2CCCC2C(N)=O)sc1-c1ccnc(C(C)(C)C(F)(F)F)c1", "system tested": "931267-113-T-J1-PDC multicell spheroid viability", "assigned label": "True"}
{"compound": "Cn1ncnc1[C@H]1c2n[nH]c(=O)c3cc(F)cc(c23)N[C@@H]1c1ccc(F)cc1 + Cc1nc(NC(=O)N2CCCC2C(N)=O)sc1-c1ccnc(C(C)(C)C(F)(F)F)c1", "system tested": "931267-113-T-J1-PDC multicell spheroid viability", "assigned label": "True"}
{"compound": "CC(=O)c1c(C)c2cnc(Nc3ccc(N4CCNCC4)cn3)nc2n(C2CCCC2)c1=O + CC(Nc1ncnc2nc[nH]c12)c1cc2cccc(Cl)c2c(=O)n1-c1ccccc1", "system tested": "931267-113-T-J1-PDC multicell spheroid viability", "assigned label": "False"}
